- Test system: KM12 colon
- experiment summary: NCI-60 one-dose screen, 48 h (100 = growth as untreated, 0 = no growth, -100 = all killed)
- protocol conditions: 10 µM
About 83,000 compounds went through this panel and 20% of them were active in at least one assay; those are over-represented in the sample as a whole. Active and inactive are the calls of the source. How the source made its calls: active means growth percent below 10; inactive means the rest.
Below: a set of entries, each annotated with reported growth.
quantity kind: growth

[[record]]
molecule = "O=C(/C=C/c1ccc(F)cc1)c1nc2ccccc2n1Cc1ccc(Br)cc1"
quantity_kind = "growth"
result = "-25.3% (active)"

[[record]]
molecule = "CC12OOC(C)(OO1)C2CCC(=O)NCCCNc1ccnc2cc(Cl)ccc12 (stereo not given)"
quantity_kind = "growth"
result = "86.4% (inactive)"

[[record]]
molecule = "COc1ccc2cc([C@H](C)C(=O)[Se]CCC#N)ccc2c1"
quantity_kind = "growth"
result = "5.84% (active)"

[[record]]
molecule = "O=C(/C=C/c1ccc(Cl)cc1Cl)c1nc2ccccc2n1Cc1ccc(Br)cc1"
quantity_kind = "growth"
result = "82.7% (inactive)"

[[record]]
molecule = "CC[C@]12C=CCN3CC[C@@]4(c5ccc(OC)cc5N(C)[C@H]4[C@@](O)(C(=O)OC)[C@@H]1OC(=O)CCCC[P+](C1CCCCC1)(C1CCCCC1)C1CCCCC1)[C@@H]32"
quantity_kind = "growth"
result = "-71.1% (active)"

